These data points were gathered from ChEMBL document CHEMBL1155908.

Target: Muscarinic acetylcholine receptor M1 (Rattus norvegicus)
Sequence (P08482 whole entry): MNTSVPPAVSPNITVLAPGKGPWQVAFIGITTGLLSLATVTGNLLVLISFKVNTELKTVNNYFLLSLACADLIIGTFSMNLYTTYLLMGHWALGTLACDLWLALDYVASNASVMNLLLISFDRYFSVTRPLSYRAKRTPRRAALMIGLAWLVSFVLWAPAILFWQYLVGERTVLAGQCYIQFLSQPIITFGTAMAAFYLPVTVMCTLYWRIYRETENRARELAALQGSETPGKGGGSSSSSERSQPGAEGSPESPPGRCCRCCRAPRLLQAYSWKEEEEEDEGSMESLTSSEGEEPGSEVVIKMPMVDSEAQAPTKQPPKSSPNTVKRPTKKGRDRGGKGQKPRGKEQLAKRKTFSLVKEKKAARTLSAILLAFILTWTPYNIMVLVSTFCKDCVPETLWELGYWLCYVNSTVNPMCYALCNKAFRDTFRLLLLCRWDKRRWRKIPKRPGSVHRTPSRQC
A collection of molecules and their measured IC50
Please reply with the bare figure in µM and do not write the unit itself.

Worked set:
CN1CCC=C(C2CN(C(=S)Nc3ccc(Cl)cc3Cl)CCO2)C1 (stereo not drawn) | 112
COc1ccc(NC(=S)N2CCOC(C3=CCCN(C)C3)C2)cc1 (stereo not drawn) | 15
COc1cccc(NC(=S)N2CCOC(C3=CCCN(C)C3)C2)c1 (stereo not drawn) | 120
CN1CCC=C(C2CN(C(=S)Nc3ccc(F)cc3)CCO2)C1 (stereo not drawn) | 31
COc1ccccc1NC(=S)N1CCOC(C2=CCCN(C)C2)C1 (stereo not drawn) | 362

So, CN1CCC=C(C2CN(C(=S)Nc3ccc(Cl)cc3)CCO2)C1 (stereo not drawn) ? Its IC50 was 1.2

The measured IC50 associated with CN1CCC=C(C2CN(C(=S)Nc3cccc(Cl)c3)CCO2)C1 (stereo not drawn) reads 236

The molecule listed as CN1CCC=C(C2CN(C(=S)Nc3ccccc3Cl)CCO2)C1 (stereo not drawn) shows IC50 equal to 515

* * *

Item-by-item account of Ki
Biological target: Muscarinic acetylcholine receptor M1 (Rattus norvegicus)
Sequence (P08482 whole entry): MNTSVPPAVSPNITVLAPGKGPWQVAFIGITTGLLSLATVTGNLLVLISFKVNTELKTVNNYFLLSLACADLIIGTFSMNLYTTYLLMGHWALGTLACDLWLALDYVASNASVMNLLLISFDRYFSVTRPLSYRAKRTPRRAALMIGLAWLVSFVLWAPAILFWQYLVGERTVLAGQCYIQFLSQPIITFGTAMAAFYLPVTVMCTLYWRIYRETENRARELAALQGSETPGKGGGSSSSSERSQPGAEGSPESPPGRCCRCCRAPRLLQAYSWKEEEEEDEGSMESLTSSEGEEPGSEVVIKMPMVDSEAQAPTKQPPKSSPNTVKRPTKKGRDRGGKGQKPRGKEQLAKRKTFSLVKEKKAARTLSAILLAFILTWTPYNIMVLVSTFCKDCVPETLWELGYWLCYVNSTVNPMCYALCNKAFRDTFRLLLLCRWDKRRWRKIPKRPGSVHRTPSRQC
Kindly provide the numeric value in µM only, without the unit symbol.

The examples below pair each entry with its known result.
CN1CCC=C(C2CN(C(=S)Nc3ccccc3F)CCO2)C1 (centres undefined) | 15
COc1cccc(NC(=S)N2CCOC(C3=CCCN(C)C3)C2)c1 (centres undefined) | 41
COc1ccccc1NC(=S)N1CCOC(C2=CCCN(C)C2)C1 (centres undefined) | 98

Now examine the next entry.
Entry CN1CCC=C(C2CN(C(=S)Nc3cccc(Cl)c3)CCO2)C1 (centres undefined) , Ki reported as 85
